Target system: glucagon receptor (GCGR), primary cAMP assay (human, UniProt P47871 26-477)
Sequence (P47871 26-477): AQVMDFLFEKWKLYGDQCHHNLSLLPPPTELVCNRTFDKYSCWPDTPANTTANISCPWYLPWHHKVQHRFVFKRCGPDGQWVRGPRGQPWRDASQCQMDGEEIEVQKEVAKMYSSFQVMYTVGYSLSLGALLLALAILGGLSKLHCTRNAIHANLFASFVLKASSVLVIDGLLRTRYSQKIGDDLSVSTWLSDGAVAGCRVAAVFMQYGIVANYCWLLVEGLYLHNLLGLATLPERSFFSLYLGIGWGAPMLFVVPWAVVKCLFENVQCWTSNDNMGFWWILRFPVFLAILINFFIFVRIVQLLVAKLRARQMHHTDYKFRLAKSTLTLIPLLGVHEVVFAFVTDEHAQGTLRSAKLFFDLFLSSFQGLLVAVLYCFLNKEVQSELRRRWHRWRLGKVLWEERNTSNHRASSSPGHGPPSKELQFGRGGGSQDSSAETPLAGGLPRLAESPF
Procedure text: cell-based or functional assay
Starred links: 1 amine or outer side, 2 acyl side, 3 side chain; linkers in the order of their positions; H or OH if unused. Non-standard residues stand in square brackets, D forms with d. Groups on a side chain read outwards from the residue. Primed or numbered codes have the meaning given here. No end group written: not given here. *: point of attachment. γGlu = O=C(O)[C@H](CCC(=O)[*:2])N[*:1]; Palmitoyl = CCCCCCCCCCCCCCCC(=O)*; αMeF = C[C@](N)(Cc1ccccc1)C(=O)O; αMeK = C[C@](N)(CCCCN)C(=O)O; Lauroyl = CCCCCCCCCCCC(=O)*; αMeS = C[C@](N)(CO)C(=O)O; PEG2′ = not defined here; Aib = CC(C)(N)C(=O)O
Give measured Primary assay EC50 (cAMP), n2 for each item. Keep answers brief.
Numbers only, in nM.

Q. Return Primary assay EC50 (cAMP), n2 for the following binder: H[Aib]EGS[αMeF]TSDV[αMeS]SYK([PEG2′-PEG2′-γGlu-Lauroyl])EGEAA[αMeK]EFIAWK([PEG2′-PEG2′-γGlu-Lauroyl])VEGG-NH2 [SEQ ID NO: 270]
A. 22.3

Q. Quote Primary assay EC50 (cAMP), n2 reported for H[Aib]EGTFTSDVSK([PEG2′-PEG2′-γGlu-Palmitoyl])FLEGEAAEEFIK([PEG2′-PEG2′-γGlu-Palmitoyl])FVVEGG-NH2 [SEQ ID NO: 245] please.
A. 21.6

Q. Supply reported Primary assay EC50 (cAMP), n2 belonging to this binder: H[Aib]EGS[αMeF]TSDV[αMeS]SK([PEG2′-PEG2′-γGlu-Palmitoyl])LEGEAA[αMeK]EFIK([PEG2′-PEG2′-γGlu-Palmitoyl])WVVEGG-NH2 [SEQ ID NO: 265]
A. 21.6

Now examine the next entry.
Q. Return the recorded Primary assay EC50 (cAMP), n2 value; entry: H[Aib]EGS[αMeF]TSDVSK([PEG2′-PEG2′-γGlu-Lauroyl])YLEGEAA[αMeK]EFIAK([PEG2′-PEG2′-γGlu-Lauroyl])VVEGG-NH2 [SEQ ID NO: 252]
A. 22.7
